test: One-week comparative intranasal irritation study in rats: toxicokinetics; conditions: male, rat, in vivo, inhaled or intranasal, 35 mg, intranasal 35 mg (2.50 mg/cm^2) once daily, Day 6, read-out: Composite AUC0-24 h
property measured: AUC(0-t) (µM·h)
Write down the numeric answer in µM·h and omit the unit.

Query: Look up AUC(0-t): Cc1cc(C[C@@H](NC(=O)N2CCC(c3cc4ccccc4[nH]c3=O)CC2)C(=O)N2CCN(C3CCN(C)CC3)CC2)cc2cn[nH]c12 [Compound I]
Response: 5.4

====

assay: One-week comparative intranasal irritation study in rats: toxicokinetics; conditions: male, rat, in vivo, inhaled or intranasal, 5 mg, intranasal 5 mg (0.357 mg/cm^2) once daily, Day 0
property measured: Tmax
Value and unit, in that order.

Query: Look up Tmax: Cc1cc(C[C@@H](NC(=O)N2CCC(c3cc4ccccc4[nH]c3=O)CC2)C(=O)N2CCN(C3CCN(C)CC3)CC2)cc2cn[nH]c12
Response: 30 min
